The measurements presented in this section are drawn from patent US20220073617A1.

measured-on: T1, monovalent hVISTA-ECD (human VISTA extracellular domain with His tail) (human, UniProt Q9H7M9 33-193)
T1 construct: analyte flowed over captured antibody; also called huVISTA-His
test: SPR, pH 7.4
assay-endpoint: Kd (nM)
Give just the numeric value; nM need not be written.

Briefly, Kd measured for P1-063001 (41F11_LC_Mutant: V29D/A64G/R91T) (antibody, V domains shown, also called P1-063001-5; P1-063001-6) VH: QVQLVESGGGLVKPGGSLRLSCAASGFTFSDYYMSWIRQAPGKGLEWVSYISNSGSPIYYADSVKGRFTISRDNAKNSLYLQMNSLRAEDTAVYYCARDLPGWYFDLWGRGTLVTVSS VL: EIVLTQSPATLSLSPGERATLSCRASQSDSSYLAWYQQKPGQAPRLLIYDASNRATGIPARFSGSGSGTDFTLTISSLEPEDFAVYYCQQTNNWPRTFGQGTKVEIK : 0.38

The recorded Kd for P1-061528 (41F11 NGS mut VK_A64G/R91A) (antibody, V domains shown, also called P1-061528-2) VH: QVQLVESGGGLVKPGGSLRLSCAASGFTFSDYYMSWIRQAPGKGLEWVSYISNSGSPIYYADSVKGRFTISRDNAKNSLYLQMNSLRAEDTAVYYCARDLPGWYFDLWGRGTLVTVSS VL: EIVLTQSPATLSLSPGERATLSCRASQSVSSYLAWYQQKPGQAPRLLIYDASNRATGIPARFSGSGSGTDFTLTISSLEPEDFAVYYCQQANNWPRTFGQGTKVEIK is 1.4

For reference, reported Kd for P1-065064 (41F11_LC_Mutant: V29D/A64G/R91T) (antibody, V domains shown, Same printed description as P1-063001 under another ID; also called P1-065064-1) VH: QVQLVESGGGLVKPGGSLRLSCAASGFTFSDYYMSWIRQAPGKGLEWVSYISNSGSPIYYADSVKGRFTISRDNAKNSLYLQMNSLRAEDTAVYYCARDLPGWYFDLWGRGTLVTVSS VL: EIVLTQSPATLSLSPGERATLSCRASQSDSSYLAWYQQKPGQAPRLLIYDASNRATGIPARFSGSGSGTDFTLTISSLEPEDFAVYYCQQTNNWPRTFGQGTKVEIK stands at 0.36
